# ASSAY SUMMARY: Binding affinity to Hsp90 (unknown origin) assessed as dissociation constant
# Design: species or system Homo sapiens
MEASURED ATTRIBUTE: Kd

Using the record for Cc1cccc(C2c3[nH]c4ccccc4c3CC3C(=O)N(c4ccccc4C(=O)O)C(=O)N32)c1 (stereo unspecified) , report its Kd. 177 µM

----------
# ASSAY SUMMARY: Oral bioavailability in Beagle dog at 2 mg/kg
# Format: ADME, organism-based, Canis lupus familiaris
# CONDITION LABEL: in vivo
MEASURED ATTRIBUTE: bioavailability

For the molecule shown here, `COc1cccc(Nc2ncnn3ccc(CN4CC[C@@H](N)[C@@H](O)C4)c23)c1` , give the reported bioavailability. 29.7%

Data origin, for the record: ChEMBL document CHEMBL5537202
